Origin of measurements: patent US7842469B2

# experimental-details: Luciferase activity of purified RLuc mutants (light output integrated over 10 s, luminometer)
# Assay type: biochemical
# condition-label: benzyl-coelenterazine; relative to native enzyme
Each item that follows carries a reported Activity (relative to RLuc) bc.
parameter-measured: Activity (relative to RLuc) bc

F116L/C124A: RLuc mutant F116L/C124A (protein) MASKVYDPEQRKRMITGPQWWARCKQMNVLDSFINYYDSEKHAENAVIFLHGNAASSYLWRHVVPHIEPVARCIIPDLIGMGKSGKSGNGSYRLLDHYKYLTAWFELLNLPKKIILVGHDWGAALAFHYSYEHQDKIKAIVHAESVVDVIESWDEWPDIEEDIALIKSEEGEKMVLENNFFVETMLPSKIMRKLEPEEFAAYLEPFKEKGEVRRPTLSWPREIPLVKGGKPDVVQIVRNYNAYLRASDDLPKMFIESDPGFFSNAIVEGAKKFPNTEFVKVKGLHFSQEDAPDEMGKYIKSFVERVLKNEQ; 1.0
C124A/E195S/P196D: RLuc mutant C124A/E195S/P196D (protein) MASKVYDPEQRKRMITGPQWWARCKQMNVLDSFINYYDSEKHAENAVIFLHGNAASSYLWRHVVPHIEPVARCIIPDLIGMGKSGKSGNGSYRLLDHYKYLTAWFELLNLPKKIIFVGHDWGAALAFHYSYEHQDKIKAIVHAESVVDVIESWDEWPDIEEDIALIKSEEGEKMVLENNFFVETMLPSKIMRKLSDEEFAAYLEPFKEKGEVRRPTLSWPREIPLVKGGKPDVVQIVRNYNAYLRASDDLPKMFIESDPGFFSNAIVEGAKKFPNTEFVKVKGLHFSQEDAPDEMGKYIKSFVERVLKNEQ; 0.10
C124A/F180A: RLuc mutant C124A/F180A (protein) MASKVYDPEQRKRMITGPQWWARCKQMNVLDSFINYYDSEKHAENAVIFLHGNAASSYLWRHVVPHIEPVARCIIPDLIGMGKSGKSGNGSYRLLDHYKYLTAWFELLNLPKKIIFVGHDWGAALAFHYSYEHQDKIKAIVHAESVVDVIESWDEWPDIEEDIALIKSEEGEKMVLENNAFVETMLPSKIMRKLEPEEFAAYLEPFKEKGEVRRPTLSWPREIPLVKGGKPDVVQIVRNYNAYLRASDDLPKMFIESDPGFFSNAIVEGAKKFPNTEFVKVKGLHFSQEDAPDEMGKYIKSFVERVLKNEQ; 0.01
A55T/C124A: RLuc mutant A55T/C124A (protein) MASKVYDPEQRKRMITGPQWWARCKQMNVLDSFINYYDSEKHAENAVIFLHGNATSSYLWRHVVPHIEPVARCIIPDLIGMGKSGKSGNGSYRLLDHYKYLTAWFELLNLPKKIIFVGHDWGAALAFHYSYEHQDKIKAIVHAESVVDVIESWDEWPDIEEDIALIKSEEGEKMVLENNFFVETMLPSKIMRKLEPEEFAAYLEPFKEKGEVRRPTLSWPREIPLVKGGKPDVVQIVRNYNAYLRASDDLPKMFIESDPGFFSNAIVEGAKKFPNTEFVKVKGLHFSQEDAPDEMGKYIKSFVERVLKNEQ; 1.2
C124A/S257G: RLuc mutant C124A/S257G (protein) MASKVYDPEQRKRMITGPQWWARCKQMNVLDSFINYYDSEKHAENAVIFLHGNAASSYLWRHVVPHIEPVARCIIPDLIGMGKSGKSGNGSYRLLDHYKYLTAWFELLNLPKKIIFVGHDWGAALAFHYSYEHQDKIKAIVHAESVVDVIESWDEWPDIEEDIALIKSEEGEKMVLENNFFVETMLPSKIMRKLEPEEFAAYLEPFKEKGEVRRPTLSWPREIPLVKGGKPDVVQIVRNYNAYLRASDDLPKMFIEGDPGFFSNAIVEGAKKFPNTEFVKVKGLHFSQEDAPDEMGKYIKSFVERVLKNEQ; 0.95
